Sourced from patent US20250179017A1

Molecular target: human EP2 (PTGER2) (Homo sapiens)
Construct: Cayman Chemical (Human EP2 Reporter Assay Kit)
Sequence (P43116 whole entry): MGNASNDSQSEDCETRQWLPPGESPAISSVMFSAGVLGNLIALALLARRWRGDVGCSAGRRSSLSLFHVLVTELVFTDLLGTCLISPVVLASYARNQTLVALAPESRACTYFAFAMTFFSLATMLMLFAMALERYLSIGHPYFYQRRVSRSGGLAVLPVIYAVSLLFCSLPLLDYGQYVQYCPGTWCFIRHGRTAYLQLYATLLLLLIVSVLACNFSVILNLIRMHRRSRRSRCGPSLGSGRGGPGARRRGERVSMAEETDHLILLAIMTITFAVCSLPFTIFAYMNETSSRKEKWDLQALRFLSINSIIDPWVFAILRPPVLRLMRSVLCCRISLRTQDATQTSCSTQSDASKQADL
Assay: EP2 antagonist assay (HEK-293 CNG membrane potential cAMP assay / 293T SEAP reporter assay, PGE2-stimulated)
Conditions: EP2 antagonist activity; concentration for 50% inhibition of signal compared to DMSO
pIC50: −log10 of the molar value.

compound: C[C@H](NC(=O)c1cc(-c2cccnc2)cc2ccn(Cc3cccc(C(F)(F)F)c3)c12)c1ccc(C(=O)O)cc1 [Example 128]
targetOfAssay: human EP2 (PTGER2) (Homo sapiens)
pIC50: > 7.00

compound: C[C@H](NC(=O)c1cc(-c2ccccc2)cc2cnn(Cc3cccc(Cl)c3)c12)c1ccc(C(=O)O)cc1 [Example 170]
targetOfAssay: human EP2 (PTGER2) (Homo sapiens)
pIC50: > 7.00

compound: O=C(O)c1ccc(CNC(=O)c2cc(-c3cc(F)cc(F)c3)cc3ccn(Cc4cccc(Cl)c4)c23)cc1 [Example 106]
targetOfAssay: human EP2 (PTGER2) (Homo sapiens)
pIC50: > 7.00

compound: O=C(O)c1ccc(CNC(=O)c2cc(-c3cc(Cl)cc(Cl)c3)cc3ccn(Cc4ccc(C(F)(F)F)cc4)c23)cc1 [Example 88]
targetOfAssay: human EP2 (PTGER2) (Homo sapiens)
pIC50: 6.00 to 7.00

compound: O=C(O)c1ccc(CNC(=O)c2cc(-c3cc(F)cc(F)c3)cc3cnn(Cc4cccc(C(F)(F)F)c4)c23)cc1 [Example 139]
targetOfAssay: human EP2 (PTGER2) (Homo sapiens)
pIC50: > 7.00

compound: C[C@H](NC(=O)c1cc(-c2ccccc2)cc2cnn([C@@H](C)c3ccc4ccccc4c3)c12)c1ccc(C(=O)O)cc1 [Example 197]
targetOfAssay: human EP2 (PTGER2) (Homo sapiens)
pIC50: 6.00 to 7.00

compound: C[C@H](NC(=O)c1cc(-c2cc(F)cc(F)c2)cc2ccn(Cc3cccc(C(F)(F)F)c3)c12)c1ccc(C(=O)O)cc1 [Example 130]
targetOfAssay: human EP2 (PTGER2) (Homo sapiens)
pIC50: > 7.00

compound: O=C(O)c1ccc(C2(NC(=O)c3cc(-c4cc(F)cc(F)c4)cc4ccn(Cc5cccc(C(F)(F)F)c5)c34)CC2)cc1 [Example 132]
targetOfAssay: human EP2 (PTGER2) (Homo sapiens)
pIC50: 6.00 to 7.00

compound: O=C(O)c1ccc(CNC(=O)c2cc(-c3cc(F)cc(F)c3)cc3cnn(Cc4ccc5ccccc5c4)c23)cc1 [Example 157]
targetOfAssay: human EP2 (PTGER2) (Homo sapiens)
pIC50: > 7.00

compound: COc1cccc(Cn2ccc3c(Nc4ccccc4)ccc(C(=O)N[C@@H](C)c4ccc(C(=O)O)cc4)c32)c1 [Example 158]
targetOfAssay: human EP2 (PTGER2) (Homo sapiens)
pIC50: > 7.00

compound: C[C@H](NC(=O)c1cc(-c2ccc(F)c(F)c2)cc2cnn(Cc3ccc(-c4ccc(F)cc4)cc3)c12)c1ccc(C(=O)O)cc1 [Example 205]
targetOfAssay: human EP2 (PTGER2) (Homo sapiens)
pIC50: > 7.00

compound: O=C(O)c1ccc(C2(NC(=O)c3cc(Nc4ccccc4)cc4ccn(Cc5ccc(C(F)(F)F)cc5)c34)CC2)cc1 [Example 43]
targetOfAssay: human EP2 (PTGER2) (Homo sapiens)
pIC50: > 7.00

compound: O=C(O)c1ccc(CNC(=O)c2cc(-c3ccccc3F)cc3ccn(Cc4ccc(C(F)(F)F)cc4)c23)cc1 [Example 87]
targetOfAssay: human EP2 (PTGER2) (Homo sapiens)
pIC50: > 7.00

compound: O=C(O)c1ccc(CNC(=O)c2cc(-c3cc(F)cc(F)c3)cc3cnn(Cc4ccc(C(F)(F)F)cc4)c23)cc1 [Example 99]
targetOfAssay: human EP2 (PTGER2) (Homo sapiens)
pIC50: > 7.00
